Tested on: gum arabic
TEST_NAME: VHH binding to gum arabic in ELISA
Design: species or system acacia tree
TEST_PARAMETERS: [VHH] 3 μg/ml (200 nM); no gum arabic coat (−)
ASSAY_READOUT: absorbance at 405 nm
Response field accepts a number only; no unit should be typed.

Look up absorbance at 405 nm: VHH7A2: plant-binding VHH, listed among SEQ ID NO:1-42 (protein, listed as Lama glama, 7A2) VHH: QVQLQESGGGSVHPGGSLTLSCLASGFSLSNYGMGWFRQAPGKEREAVSCTSVPNGHIYYAESVKGRFTIVRDNAGNSVYLQMNSLKPEDAANYFCATTDCEAAHWGTWVNYYGQGTQVTVSS
0.075

What value of absorbance at 405 nm has been reported for the following molecule? VHH 3E6 (VHH, also called Monovalent VHH 3E6) VHH: QVQLQESGGGLVQPGGTLSLSCAASGFNVRWYGMGWFRQAPGKEREGVACISALQETTAYADSVKGRFTLSRDNPKNTLSLQMNNLQPEDTGVYYCATTDCDDSSRMTYTSYLGQGTQVTVSS
0.090

Find the recorded absorbance at 405 nm belonging to VHH5E5: plant-binding VHH, listed among SEQ ID NO:1-42 (protein, listed as Lama glama, 5E5) VHH: QVQLQESGGGLVQPGGSLTLSCTASGFAMRRFGIGWFRQVVGKEREGVSCSNVHDGSTYYANYVKGRFTIVRDDTKNMLYLHMNSLRAEDTGVYSCATTDCEATAWGTYRGYFGQGTQVTVSS and report it.
0.073
